# Test system: A431 human skin carcinoma cell line
# RUN_DESCRIPTION: In vitro antitumor activity assay (SRB), A431
# Format: cell-based
# APPLIED_CONDITIONS: Homo sapiens, A-431; A431, 72 h, Table 3
# Experimental: […] According to cell growth rate, tumor cells in the log phase of growth were seeded into 96-well culture plates at 100 μL per well, and allowed to attach for 24 hours, followed by addition of a test compound or positive control at 10 μL per well. […] Finally, Tris solution was added at 150 μL per well, and the absorbance (A) was measured at a wavelength of 515 nm using a microplate reader. The growth inhibition on tumor cell proliferation was calculated according to the following equation: […]
What IC50 was measured for each of the following?
Give bare numbers, in nM.

Dear colleague, could you please provide IC50 for the compounds listed below?
1. C[C@]12CC[C@H](OC(=O)NC3CCNCC3)C[C@H]1CC[C@@H]1[C@@H]2CC[C@]2(C)[C@@H](c3ccc(=O)oc3)CC[C@]12O
2. C[C@]12CC[C@H](O)C[C@H]1CC[C@@H]1[C@@H]2CC[C@]2(C)[C@@H](c3ccc(=O)oc3)CC[C@]12O [bufalin, reference compound]

1: 2.62; 2: 26.6

---

# Tested on: Hep3B human hepatic carcinoma cell line
# RUN_DESCRIPTION: In vitro antitumor activity assay (SRB), Hep3B
# Type: cell-based
# APPLIED_CONDITIONS: 72 h, Table 3
MEASUREMENT_KIND: IC50

API: value(readout=IC50, system=Hep3B human hepatic carcinoma cell line) for record C[C@]12CC[C@H](OC(=O)NC3CCNCC3)C[C@H]1CC[C@@H]1[C@@H]2CC[C@]2(C)[C@@H](c3ccc(=O)oc3)CC[C@]12O.Cl [II1E-01•HCl]
> 1000 nM

---

# System: PC-3 human prostatic carcinoma cell line
# RUN_DESCRIPTION: In vitro antitumor activity assay (SRB), PC-3
# Assay type: cell-based
# APPLIED_CONDITIONS: Homo sapiens, Prostatic carcinoma cell; PC-3, 72 h, Table 3; read-out: IC50 (72 h), PC-3
MEASUREMENT_KIND: pIC50
Answers are plain numbers, as −log10 of the molar value.

>>> assay_value("C[C@]12CC[C@H](O)C[C@H]1CC[C@@H]1[C@@H]2CC[C@]2(C)[C@@H](c3ccc(=O)oc3)CC[C@]12O [bufalin, reference compound]")
8.30

Here's the next entry for you.
GET /values?readout=pIC50&item= C[C@]12CC[C@H](OC(=O)NC3CCNCC3)C[C@H]1CC[C@@H]1[C@@H]2CC[C@]2(C)[C@@H](c3ccc(=O)oc3)CC[C@]12O
9.39

---

# Test system: NCI-H460 human lung carcinoma cell line
# RUN_DESCRIPTION: In vitro antitumor activity assay (SRB), NCI-H460
# Type: cell-based
# APPLIED_CONDITIONS: NCI-H460, 72 h, Table 3
MEASUREMENT_KIND: IC50 (nM)
Answers are plain numbers, in nM.

GET /values?readout=IC50&item= C[C@]12CC[C@H](OC(=O)NC3CCNCC3)C[C@H]1CC[C@@H]1[C@@H]2CC[C@]2(C)[C@@H](c3ccc(=O)oc3)CC[C@]12O.Cl [II1E-01•HCl]
0.67

---

# Test system: PC-3 human prostatic carcinoma cell line
# RUN_DESCRIPTION: In vitro antitumor activity assay (SRB), PC-3
# Format: cell-based
# APPLIED_CONDITIONS: PC-3, 72 h, Table 3; read-out: IC50 (72 h), PC-3
MEASUREMENT_KIND: IC50
Could you give the number and then its unit, please?

GET /values?readout=IC50&item= C[C@]12CC[C@H](OC(=O)NC3CCNCC3)C[C@H]1CC[C@@H]1[C@@H]2CC[C@]2(C)[C@@H](c3ccc(=O)oc3)CC[C@]12O.Cl [II1E-01•HCl]
0.3 nM

---

What pIC50 was measured for each of the following?
# Test system: PC-3 human prostatic carcinoma cell line
# RUN_DESCRIPTION: In vitro antitumor activity assay (SRB), PC-3
# Assay type: cell-based
# APPLIED_CONDITIONS: Homo sapiens, Prostatic carcinoma cell; PC-3, Table 2; read-out: IC50, inhibition of cell proliferation, PC-3
Numbers only, as −log10 of the molar value.

Examples with their reported pIC50 follow.
>>> assay_value("C[C@]12CC[C@H](OC(=O)N3CCCNCC3)C[C@H]1CC[C@@H]1[C@@H]2CC[C@]2(C)[C@@H](c3ccc(=O)oc3)CC[C@]12O [II1D-06]")
8.90
>>> assay_value("C[C@]12CC[C@H](O)C[C@H]1CC[C@@H]1[C@@H]2CC[C@]2(C)[C@@H](c3ccc(=O)oc3)CC[C@]12O [bufalin, reference compound]")
7.76
>>> assay_value("C[C@]12CC[C@H](OC(=O)NCC3CCCCN3)C[C@H]1CC[C@@H]1[C@@H]2CC[C@]2(C)[C@@H](c3ccc(=O)oc3)CC[C@]12O (stereo partly drawn) [II1E-03]")
7.83
>>> assay_value("CCNCCNC(=O)O[C@H]1CC[C@@]2(C)[C@H](CC[C@@H]3[C@@H]2CC[C@]2(C)[C@@H](c4ccc(=O)oc4)CC[C@]32O)C1 [II1B-05]")
7.90
>>> assay_value("CCN(CC)CCNC(=O)O[C@H]1CC[C@@]2(C)[C@H](CC[C@@H]3[C@@H]2CC[C@]2(C)[C@@H](c4ccc(=O)oc4)CC[C@]32O)C1 [II1B-02]")
7.70

Here's the next entry for you.
GET /values?readout=pIC50&item= CN(C)CCN(C)C(=O)O[C@H]1CC[C@@]2(C)[C@H](CC[C@@H]3[C@@H]2CC[C@]2(C)[C@@H](c4ccc(=O)oc4)CC[C@]32O)C1 [II1B-03]
7.56

---

# Test system: RPMI-8226 human bone carcinoma cell line
# RUN_DESCRIPTION: In vitro antitumor activity assay (SRB), RPMI8226
# Assay type: cell-based
# APPLIED_CONDITIONS: Homo sapiens, RPMI-8226; RPMI8226, 72 h, Table 3
What IC50 was measured for each of the following?
Numbers only, in nM.

Dear colleague, could you please provide IC50 for the compounds listed below?
1. C[C@]12CC[C@H](O)C[C@H]1CC[C@@H]1[C@@H]2CC[C@]2(C)[C@@H](c3ccc(=O)oc3)CC[C@]12O [bufalin, reference compound]
2. C[C@]12CC[C@H](OC(=O)NC3CCNCC3)C[C@H]1CC[C@@H]1[C@@H]2CC[C@]2(C)[C@@H](c3ccc(=O)oc3)CC[C@]12O

[13.5, 1.53]

---

# System: BGC-823 human gastric adenocarcinoma cell line
# RUN_DESCRIPTION: In vitro antitumor activity assay (SRB), BGC-823
# Format: cell-based
# APPLIED_CONDITIONS: BGC-823, 72 h, Table 3
MEASUREMENT_KIND: IC50 (nM)
Give bare numbers, in nM.

API: value(readout=IC50, system=BGC-823 human gastric adenocarcinoma cell line) for record C[C@]12CC[C@H](OC(=O)NC3CCNCC3)C[C@H]1CC[C@@H]1[C@@H]2CC[C@]2(C)[C@@H](c3ccc(=O)oc3)CC[C@]12O.Cl [II1E-01•HCl]
0.56

---

# RUN_DESCRIPTION: In vivo acute toxicity assay in mouse
# APPLIED_CONDITIONS: in vivo, ip; intraperitoneal, male mouse; read-out: LD50 of intraperitoneal administration, male mouse
# Method: Sample Name: bufalin, II1E-01.HCl 35.8 mg of II1E-01.HCl was weighted, added with 1.78 mL of anhydrous ethanol, and dissolved completely under ultrasonication. 16.02 mL of 5% glucose injection was added and agitated homogeneously. The solution was filtered with a 0.2 μm filtration membrane to obtain a stock solution with a concentration of 2 mg/mL, wherein the content of ethanol is 10%. The highest dosage is 20 mg/kg, calculated based on the administration volume of 0.1 mL/10 g body weight of mouse.
MEASUREMENT_KIND: LD50

GET /values?readout=LD50&item= C[C@]12CC[C@H](O)C[C@H]1CC[C@@H]1[C@@H]2CC[C@]2(C)[C@@H](c3ccc(=O)oc3)CC[C@]12O [bufalin, reference compound]
~2.4 mg/kg

---

# Test system: U87-MG human brain carcinoma cell line
# RUN_DESCRIPTION: In vitro antitumor activity assay (SRB), U87-MG
# Assay type: cell-based
# APPLIED_CONDITIONS: 72 h, Table 3
MEASUREMENT_KIND: IC50 (nM)
Numbers only, in nM.

GET /values?readout=IC50&item= C[C@]12CC[C@H](OC(=O)NC3CCNCC3)C[C@H]1CC[C@@H]1[C@@H]2CC[C@]2(C)[C@@H](c3ccc(=O)oc3)CC[C@]12O.Cl [II1E-01•HCl]
1.98
